- study system: arginase II (ARG II) (Homo sapiens, UniProt P78540)
- Sequence (P78540 23-354): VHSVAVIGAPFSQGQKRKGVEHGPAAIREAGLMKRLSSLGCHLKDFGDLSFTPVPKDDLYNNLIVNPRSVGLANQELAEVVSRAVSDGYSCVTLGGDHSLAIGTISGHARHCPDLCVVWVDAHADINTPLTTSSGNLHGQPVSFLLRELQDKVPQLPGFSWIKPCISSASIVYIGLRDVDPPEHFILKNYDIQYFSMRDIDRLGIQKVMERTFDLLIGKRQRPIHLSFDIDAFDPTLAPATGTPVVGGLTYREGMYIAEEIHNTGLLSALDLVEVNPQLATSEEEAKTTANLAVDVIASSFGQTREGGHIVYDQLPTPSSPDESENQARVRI
- test summary: Inhibition of arginase II, spectrophotometric urea assay at 530 nm
- Type: biochemical
- recorded conditions: Formula II compounds, Table 2-A; read-out: Potency (ARG)
Structures can show the parent of a compound that is named as a salt.
Hi there, I'd appreciate the recorded IC50 for every entry that follows.

A selection of reference data follows.
>  <compound>
NC(CCCCB(O)O)(C(=O)O)C1CCN(C2CCCCC2)CC1 (centres unmarked) [23-A, dihydrochloride]

>  <study system>
arginase II (ARG II) (Homo sapiens, UniProt P78540)

>  <measurement>
0.251 to 1 µM

$$$$
>  <compound>
NC(CCCCB(O)O)(C(=O)O)C1CCN(c2ncc(Cl)cc2Cl)CC1 (centres unmarked)

>  <study system>
arginase II (ARG II) (Homo sapiens, UniProt P78540)

>  <measurement>
2 to 5 µM

$$$$
>  <compound>
NC(CCCCB(O)O)(C(=O)O)C1CCN(C(=O)c2ccc(Cl)cc2)CC1 (centres unmarked) [26-A, hydrochloride]

>  <study system>
arginase II (ARG II) (Homo sapiens, UniProt P78540)

>  <measurement>
2 to 5 µM

$$$$
>  <compound>
NC(CCCCB(O)O)(C(=O)O)C1CNC1 (centres unmarked) [18-A, dihydrochloride]

>  <study system>
arginase II (ARG II) (Homo sapiens, UniProt P78540)

>  <measurement>
2 to 5 µM

$$$$

Now consider a different compound.
IN: Returns the measured IC50 for the input compound. Input: NC(CCCCB(O)O)(C(=O)O)C1CCN(c2cc(C(F)(F)F)nc3ccccc23)CC1 (centres unmarked) [3-A, hydrochloride]
OUT: 1 to 2 µM
